SUBJECT_OF_TEST: D(4) dopamine receptor (Homo sapiens, UniProt P21917)
Sequence (P21917 whole entry): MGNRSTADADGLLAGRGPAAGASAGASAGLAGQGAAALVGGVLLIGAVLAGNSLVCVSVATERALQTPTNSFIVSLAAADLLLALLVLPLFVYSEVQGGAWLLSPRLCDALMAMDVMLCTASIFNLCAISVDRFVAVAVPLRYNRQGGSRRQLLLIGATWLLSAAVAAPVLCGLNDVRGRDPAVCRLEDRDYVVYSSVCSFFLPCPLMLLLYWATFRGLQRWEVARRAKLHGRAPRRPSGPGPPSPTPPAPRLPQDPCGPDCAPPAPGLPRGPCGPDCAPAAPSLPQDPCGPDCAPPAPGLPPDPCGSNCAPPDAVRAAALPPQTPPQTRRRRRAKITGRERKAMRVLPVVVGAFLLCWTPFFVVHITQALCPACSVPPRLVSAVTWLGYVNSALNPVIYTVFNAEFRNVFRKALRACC
TEST_READOUT: Ki

CN1CCC[C@@H]1Cc1c[nH]c2ccc(NS(=O)(=O)c3cccc(Cl)c3)cc12: > 5 µM
CN1CCC[C@@H]1Cc1c[nH]c2ccc(NS(=O)(=O)c3ccccc3Cl)cc12: > 5 µM

Consider now this further compound.
Quick one: Ki of O=S(=O)(Nc1ccc2[nH]cc(C[C@H]3CCCN3)c2c1)c1ccccc1Cl ?
> 5 µM

====

Below: a set of entries, each annotated with reported Imax.
SUBJECT_OF_TEST: 5-hydroxytryptamine receptor 6 (Homo sapiens)
Sequence (P50406 whole entry): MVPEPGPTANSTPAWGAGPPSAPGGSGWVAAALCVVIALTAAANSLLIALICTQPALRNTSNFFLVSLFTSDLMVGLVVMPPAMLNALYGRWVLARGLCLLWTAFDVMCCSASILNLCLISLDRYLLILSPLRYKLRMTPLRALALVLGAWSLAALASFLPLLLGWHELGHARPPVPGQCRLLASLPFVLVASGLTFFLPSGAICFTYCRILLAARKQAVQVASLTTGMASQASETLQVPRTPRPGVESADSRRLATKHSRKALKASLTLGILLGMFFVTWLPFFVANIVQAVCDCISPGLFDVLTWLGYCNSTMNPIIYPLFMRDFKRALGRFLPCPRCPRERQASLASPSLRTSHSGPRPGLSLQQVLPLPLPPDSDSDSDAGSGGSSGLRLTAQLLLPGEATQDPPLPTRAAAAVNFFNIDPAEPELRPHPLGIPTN
METHOD_SUMMARY: Maximum percentage inhibition of 5-HT stimulated cAMP production in HeLa cells expressing 5-hydroxytryptamine 6 receptor
Format: functional, cell-based
The response must be a number in % with no trailing unit.

The following compounds have reported results that may help.
CN1CCC[C@H]1Cc1c[nH]c2ccc(NS(=O)(=O)c3ccc(OC(F)(F)F)cc3)cc12: 85
CN1CCC[C@H]1Cc1c[nH]c2ccc(NS(=O)(=O)c3cccc(C(F)(F)F)c3)cc12: 78
CN1CCC[C@H]1Cc1c[nH]c2ccc(NS(=O)(=O)c3ccccc3Br)cc12: 75
CN1CCC[C@H]1Cc1c[nH]c2ccc(NS(=O)(=O)c3ccc(Br)cc3)cc12: 85
CN1CCC[C@H]1Cc1c[nH]c2ccc(NS(=O)(=O)c3ccc4ccccc4c3)cc12: 95
Cc1c(S(=O)(=O)Nc2ccc3[nH]cc(C[C@@H]4CCCN4C)c3c2)sc2ccc(Cl)cc12: 91
CN1CCC[C@H]1Cc1c[nH]c2ccc(NS(=O)(=O)c3ccc(C(F)(F)F)cc3)cc12: 78

Entry CC(C)c1ccc(S(=O)(=O)Nc2ccc3[nH]cc(C[C@@H]4CCCN4C)c3c2)cc1 has what Imax?
76

====

Consider compounds characterized by their pKi with D(3) dopamine receptor (Homo sapiens, UniProt P35462).
Sequence (P35462 whole entry): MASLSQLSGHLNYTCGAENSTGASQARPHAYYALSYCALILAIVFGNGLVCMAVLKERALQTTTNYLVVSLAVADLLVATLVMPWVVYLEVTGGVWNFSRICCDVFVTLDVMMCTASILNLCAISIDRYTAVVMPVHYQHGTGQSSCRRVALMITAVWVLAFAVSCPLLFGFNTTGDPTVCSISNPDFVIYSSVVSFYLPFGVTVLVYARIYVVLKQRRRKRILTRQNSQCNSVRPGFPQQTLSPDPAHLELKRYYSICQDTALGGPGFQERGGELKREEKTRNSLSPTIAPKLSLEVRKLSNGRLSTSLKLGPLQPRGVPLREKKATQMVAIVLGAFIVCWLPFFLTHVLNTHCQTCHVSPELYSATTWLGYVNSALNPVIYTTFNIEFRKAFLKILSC
pKi: −log10 of the molar value.

Some compounds with known pKi results, for comparison:
CN1CCC[C@@H]1Cc1c[nH]c2ccc(NS(=O)(=O)c3ccccc3Cl)cc12: < 6.00
O=S(=O)(Nc1ccc2[nH]cc(C[C@H]3CCCN3)c2c1)c1ccccc1Cl: < 5.30

Continue with the next compound.
I'd like to know its pKi. The compound in question is CN1CCC[C@@H]1Cc1c[nH]c2ccc(NS(=O)(=O)c3cccc(Cl)c3)cc12
6.03
